For each of the molecules below, state its half-life.
- ASSAY_INFO: in vitro
- STUDY_CONDITIONS: pH 7.4
Peptide text beside a SMILES is read from it.
Numbers only, in min.

{"MOLECULE": "CC[C@@H](C)[C@@H](NC(=O)CNC(=O)CNC(=O)[C@H](N)CS)C(=O)N[C@H](CCCNC(=N)N)C(=O)NCC(=O)N[C@H](CCC(=O)O)C(=O)N[C@H](CCCNC(=N)N)C(=O)N[C@H](C)C(=O)O [D peptide] (HELM PEPTIDE1{[dC].G.G.[dI].[dR].G.[dE].[dR].[dA]}$$$$V2.0)", "OUTPUT_UNIT": "min", "half-life": 73}

Next molecule, half-life to be filled in.
Query: Would you mind telling me what half-life value was observed for CC[C@H](C)[C@H](NC(=O)CNC(=O)CNC(=O)[C@@H](N)CS)C(=O)N[C@@H](CCCNC(=N)N)C(=O)NCC(=O)N[C@@H](CCC(=O)O)C(=O)N[C@@H](CCCNC(=N)N)C(=O)N[C@@H](C)C(=O)O [L peptide] (H-CGGIRGERA-OH) ?
Response: 7
